Assay: Competitive inhibition of human alpha-fucosidase using p-nitrophenyl glycopyranoside as substrate preincubated for 5 mins followed by substrate addition and measured after 20 mins by Dixon plot analysis
assayMetric: Ki

Quick note, Ki for C[C@@H]1N[C@@H](c2cn(-c3ccc(S(=O)(=O)c4ccc(-n5cc([C@@H]6N[C@@H](C)[C@@H](O)[C@H]6O)nn5)cc4)cc3)nn2)[C@H](O)[C@@H]1O landed at 60 nM

----------
Assay: Competitive inhibition of bovine kidney alpha-fucosidase using p-nitrophenyl glycopyranoside as substrate preincubated for 5 mins followed by substrate addition and measured after 20 mins by Dixon plot analysis
Set-up: species or system Bos taurus
assayMetric: Ki (nM)
Kindly answer with a numeric value in nM, unit omitted.

Entry C[C@@H]1N[C@@H](c2cn(-c3ccc(S(=O)(=O)c4ccc(-n5cc([C@@H]6N[C@@H](C)[C@@H](O)[C@H]6O)nn5)cc4)cc3)nn2)[C@H](O)[C@@H]1O , Ki reported as 0.15

----------
Test: Inhibition of bovine kidney alpha-fucosidase using p-nitrophenyl glycopyranoside as substrate preincubated for 5 mins followed by substrate addition and measured after 20 mins by visible absorption spectroscopic analysis
Design: species or system Bos taurus
assayMetric: log10 of IC50 (log10 of the value in nM)
Remember, log10 of IC50, in nM.

Lookup result for C[C@@H]1N[C@@H](c2cn(-c3ccccc3)nn2)[C@H](O)[C@@H]1O ; measured log10 of IC50: 1.28

So for C[C@@H]1N[C@@H](c2cn(CCCCCCn3cc([C@@H]4N[C@@H](C)[C@@H](O)[C@H]4O)nn3)nn2)[C@H](O)[C@@H]1O , the logged log10 of IC50 turned out to be 1.67

So for C[C@@H]1N[C@@H](c2c[nH]nn2)[C@H](O)[C@@H]1O , the logged log10 of IC50 turned out to be 3.00

The value of log10 of IC50 measured for the compound C[C@@H]1N[C@@H](c2cn(CCOCCOCCOCCn3cc([C@@H]4N[C@@H](C)[C@@H](O)[C@H]4O)nn3)nn2)[C@H](O)[C@@H]1O turned out to be 2.08

Noted for C[C@@H]1N[C@@H](c2cn(-c3ccc(S(=O)(=O)c4ccc(N=[N+]=[N-])cc4)cc3)nn2)[C@H](O)[C@@H]1O : its log10 of IC50 reads 0.04

Short answer for C[C@@H]1N[C@@H](c2cn(-c3ccc(S(=O)(=O)c4ccc(-n5cc([C@@H]6N[C@@H](C)[C@@H](O)[C@H]6O)nn5)cc4)cc3)nn2)[C@H](O)[C@@H]1O : log10 of IC50 was -0.32

----------
Biological target: Beta-galactosidase (Bos taurus) (UniProt Q58D55)
Sequence (Q58D55 whole entry): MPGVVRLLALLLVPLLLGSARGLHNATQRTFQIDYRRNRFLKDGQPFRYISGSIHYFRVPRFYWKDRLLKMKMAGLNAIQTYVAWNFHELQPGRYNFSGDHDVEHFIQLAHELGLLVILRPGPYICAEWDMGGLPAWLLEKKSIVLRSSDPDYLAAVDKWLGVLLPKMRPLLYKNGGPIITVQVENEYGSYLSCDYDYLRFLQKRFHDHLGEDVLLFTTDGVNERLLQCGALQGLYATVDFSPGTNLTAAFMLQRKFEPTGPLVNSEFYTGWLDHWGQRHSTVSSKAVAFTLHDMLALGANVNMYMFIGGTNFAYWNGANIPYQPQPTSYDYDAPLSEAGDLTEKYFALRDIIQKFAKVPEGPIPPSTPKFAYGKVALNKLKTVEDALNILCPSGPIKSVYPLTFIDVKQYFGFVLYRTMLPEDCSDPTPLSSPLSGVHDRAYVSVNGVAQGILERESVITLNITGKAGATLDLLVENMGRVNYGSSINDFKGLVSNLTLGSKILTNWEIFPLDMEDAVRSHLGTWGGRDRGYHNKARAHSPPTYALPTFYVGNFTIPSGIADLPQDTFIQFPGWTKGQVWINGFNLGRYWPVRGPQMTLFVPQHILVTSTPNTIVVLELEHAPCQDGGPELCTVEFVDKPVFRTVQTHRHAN
Assay: Inhibition of bovine liver beta-galactosidase at 0.1 mM using p-nitrophenyl glycopyranoside as substrate preincubated for 5 mins followed by substrate addition and measured after 20 mins by visible absorption spectroscopic analysis
The source made the active and inactive calls. No cut-off for these calls is given here.
assayMetric: inhibition

# smiles, systemTested, result
rows = [
    ("C[C@@H]1N[C@@H](c2cn(-c3ccc(S(=O)(=O)c4ccc(N=[N+]=[N-])cc4)cc3)nn2)[C@H](O)[C@@H]1O", "Beta-galactosidase (Bos taurus) (UniProt Q58D55)", "inactive"),
    ("C[C@@H]1N[C@@H](c2cn(CCCCCCn3cc([C@@H]4N[C@@H](C)[C@@H](O)[C@H]4O)nn3)nn2)[C@H](O)[C@@H]1O", "Beta-galactosidase (Bos taurus) (UniProt Q58D55)", "inactive"),
    ("C[C@@H]1N[C@@H](c2c[nH]nn2)[C@H](O)[C@@H]1O", "Beta-galactosidase (Bos taurus) (UniProt Q58D55)", "inactive"),
    ("C[C@@H]1N[C@@H](c2cn(CCOCCOCCOCCn3cc([C@@H]4N[C@@H](C)[C@@H](O)[C@H]4O)nn3)nn2)[C@H](O)[C@@H]1O", "Beta-galactosidase (Bos taurus) (UniProt Q58D55)", "inactive"),
    ("C[C@@H]1N[C@@H](c2cn(-c3ccc(S(=O)(=O)c4ccc(-n5cc([C@@H]6N[C@@H](C)[C@@H](O)[C@H]6O)nn5)cc4)cc3)nn2)[C@H](O)[C@@H]1O", "Beta-galactosidase (Bos taurus) (UniProt Q58D55)", "inactive"),
]

Entry under test: C[C@@H]1N[C@@H](c2cn(-c3ccccc3)nn2)[C@H](O)[C@@H]1O . Its inhibition was inactive
